System: HepG2-A16-CD81EGFP cells
Test: cells
Conditions: Homo sapiens, HepG2, read-out: % inhibition
Answer each item with its documented inhibition at 50 µM.
Number only, in %; omit the unit.

# Cc1cc(Nc2ccc(Cl)cc2)n2nc(C(F)(F)F)nc2n1 with HepG2-A16-CD81EGFP cells: inhibition at 50 µM is 37.6

# COc1ccc(-c2nc(NC(=O)CS(=O)(=O)c3ccc(F)cc3)sc2C)cc1 with HepG2-A16-CD81EGFP cells: inhibition at 50 µM is 92.4

# CC1(c2ccccc2)Nc2ccccc2-c2nc3ccccc3n21 (stereo not drawn) with HepG2-A16-CD81EGFP cells: inhibition at 50 µM is 98.6

# COc1ccc(C(=O)Nc2ccc(Cl)cc2C(=O)Nc2ccncc2)cc1 with HepG2-A16-CD81EGFP cells: inhibition at 50 µM is -8.2

# CCOc1cc(Cl)c(C(C)NC(=O)c2cccc(OC)c2)cc1OCC (stereo not drawn) with HepG2-A16-CD81EGFP cells: inhibition at 50 µM is 86.5

# O=C(Nc1ccccc1O)c1ccc(-c2ccc(Cl)cc2Cl)o1 with HepG2-A16-CD81EGFP cells: inhibition at 50 µM is 15.3

====

Answer each item with its documented normalised signal at concentration 3.33333 (second series).
Test system: Plasmodium berghei (Pb-Luc) exoerythrocytic-stage parasites
Conditions: concentration 3.33333, second series
Give the figure by itself; no unit, no explanation.

Noted for O=C(C1CCOCC1)N1C[C@@H]2[C@H](c3ccccc31)[C@H](CO)N2C(=O)Cc1ccccn1 [BRD-K09790760-001-01-0] : its normalised signal at concentration 3.33333 (second series) reads 1.088

Noted for C[C@H]1CCCCO[C@@H](CN(C)S(=O)(=O)c2ccc(F)cc2)[C@@H](C)CN([C@@H](C)CO)C(=O)c2cc(N(C)C)ccc2O1 [BRD-K31467596-001-01-7] : its normalised signal at concentration 3.33333 (second series) reads 0.9885

Noted for C[C@H](CO)N1C[C@H](C)[C@@H](CN(C)S(=O)(=O)c2ccc(F)cc2)OCCCC[C@H](C)Oc2ccc(N(C)C)cc2C1=O [BRD-K31169989-001-01-4] : its normalised signal at concentration 3.33333 (second series) reads 0.7643

====

Tested on: Pb-Luc exoerythrocytic-stage parasites in Huh7.5.1 cells
Test: Pb-Luc time of action assay (modified 384-well luciferase assay)
Conditions: Plasmodium berghei, Huh-7.5.1, read-out: Pb-Luc IC50, Treatment: 4
Answer each item with its documented IC50.

Noted for CCc1nc(N)nc(N)c1-c1ccc(Cl)cc1 [Pyrimethamine, reference compound] : its IC50 reads 19.7 nM

Noted for COc1ccccc1CNC(=O)CCn1c(=O)[nH]c2ccccc2c1=O [MMV665916] : its IC50 reads 4290 nM

Noted for O=C1C(O)=C([C@H]2CC[C@H](c3ccc(Cl)cc3)CC2)C(=O)c2ccccc21 [Atovaquone, reference compound] : its IC50 reads 1.6 nM

Noted for Cc1ccc(N2C3c4ccccc4N(S(=O)(=O)c4ccc(C)cc4)C2c2ccccc2N3S(=O)(=O)c2ccc(C)cc2)cc1 [MMV007160] : its IC50 reads 177 nM

Noted for O=C(NCCN1CCCC1)c1cc(-c2ccc(CN3CCOCC3)cc2)nc2ccc(F)cc12 [DDD107498, reference compound] : its IC50 reads 1.1 nM

Noted for COc1cccc(C=Cc2nc(=O)c3ccccc3o2)c1OC [MMV666693] : its IC50 reads 15 nM
